Test: yeast display, Sf9 membrane polyspecificity reagent, FACS + sequencing; frameworks hold sequencing errors
Metric Name: polyreactivity (PSR sort gate)

Worked cases, answers included:
{"Biosequence": "QVQLEESGGGLVQAGGSLRLSCAASGYTVVLYAMGCDIQAPGKERELVAVISWSGGSTYYADSVKGRFTISRDNAKNTVYLQMNSLKPEDTAVYYCAVSRYYNDYWGQGTQVTVSS", "Metric Name": "polyreactivity (PSR sort gate)", "Measurement": "low polyreactivity"}
{"Biosequence": "QVQLVESGGGLVQAGGSLRISCAASGSTFDRNAMGWYRQPPGKERELVAAISSSGGRTYYADSVKGRFTISRDNAKNTVYLQMNSLKPEDTPVYYCAAAFSLGMYWGKGTQVTVSS", "Metric Name": "polyreactivity (PSR sort gate)", "Measurement": "high polyreactivity"}
{"Biosequence": "QVQLVESGGGLVQAGGSLRLSCAASGFTFTRYAMGWYRQAPGTERELVAAISRRGGSTYYADSVKGRFTISRDNAKNTVYLQMNSLKPEDTAVYYCAKDAGSRTVREFGYWGQGTQVTVSS", "Metric Name": "polyreactivity (PSR sort gate)", "Measurement": "high polyreactivity"}
{"Biosequence": "QDQLVESGGGLVQAGGSLRLSCAASGFIFFYYAMGRYRQAPGKERELVAAISSSGGSTYYADSVKGRFTISRDNAKNTVYLQMNSLKPEDTAVYYCAAQYNVPRDKYYYWGQGTQVTVSS", "Metric Name": "polyreactivity (PSR sort gate)", "Measurement": "high polyreactivity"}

Query :: Can you share its polyreactivity (PSR sort gate)? I mean this sequence: QVQLVESGGGLVQAGGSLRLSCAASGSTFGSYAMGWYRQAPGKERELVAGISWSGGRTYYADSVKGRFTISRDNAKNTVYLQMNSLKPEDTAVFYCALDTGYYYARYNFWGQGTKVTVSS
Result :: low polyreactivity

---

Test: yeast display, Sf9 membrane polyspecificity reagent, FACS + sequencing; frameworks hold sequencing errors
Metric Name: polyreactivity (PSR sort gate)

Field: example entries. Status: answers known.
{"Biosequence": "QVQLVESGGGLVQAGGSLRLSCAASGSIFVTNAMGWYRQAPGKERELVAAINQGGGSTYYADSVKGRFTISRDNAKNTVYLQMNSLKPEDTAVYYCATDAPYFVPFSTNGEFGDEYWGQGTQVTVSS", "polyreactivity (PSR sort gate)": "low polyreactivity"}
{"Biosequence": "QVQLVESGGGLVQAGGSLRLSCAASGSIFTQYTMGWYRQAPGKERELVAAISRSGGRTYYADSVKGRFTISRDNSKNTVYLQMKSLKPEDTAVYYCAAEYTDKYEYWGQGTQVTVSS", "polyreactivity (PSR sort gate)": "high polyreactivity"}
{"Biosequence": "QVQLVESGGGLVQAGGILRLSCAASGRILTTNAMGWYRQAPGKERELVAAITRSGGRTYYADSVKGRFTISRDNAKNTVYFQMNSLKPEDTAVYYCNAVTTRLSLYDYWGQGTQVTVSS", "polyreactivity (PSR sort gate)": "high polyreactivity"}
{"Biosequence": "QVQLVESGGGLVQAGGSLRLSCAASGSIFKWYTMGWYRQAPGKERELVAAITWGGGSTYYADSVKGRFTISRDNEKNTVYLQMNSLKPEDTAVYYCNREGWHYGPYGYWGQGTLVTVSS", "polyreactivity (PSR sort gate)": "low polyreactivity"}

Query :: Field request: polyreactivity (PSR sort gate) | item: QVQLVESRGGLVQAGGSLRLSCAASGRIFYVNAMGGYRQAPGKERELVAAIDVSGGRTYYADSVKGRFTISRDNAKNTVYLQMNSLKPEDTAVYYCAALKYRWTPYYPYDYWGQGTQVTVSS
Result :: low polyreactivity

---

Assay: yeast display, Sf9 membrane polyspecificity reagent, FACS + sequencing; frameworks hold sequencing errors
Metric Name: polyreactivity (PSR sort gate)

Use these answered entries as a reference point.
{"Biosequence": "QVQLVESGGGLVQAGGSLRLSCAASGRIFKLNAMGWYRQAPGNERELVAAITFAGGSTYYADSVKGRFTISRDIAKNTVYLQMNSLKPEDTAVYYCNADFSNVEMDYWGQGTQVNVSS", "polyreactivity (PSR sort gate)": "low polyreactivity"}
{"Biosequence": "QVQLVESGGGLVQAGGSLRLSCAASGRIFQPYAMGWYRPAPGKERELVAVITSGGSTNYADSVKGRFTISRDNAKNTVYLQMNSLKPEDTAVYYCNAVRTVNDYHYDYWGQGTQVTVSS", "polyreactivity (PSR sort gate)": "high polyreactivity"}
{"Biosequence": "QVQLVESGGGLVQAGGSLRLSCAASGSTFRKYAMGWYRQAPGKERELVAAISKSGGSTYYADSVKGRFTISRDNAKNTVYLQMNSLKPEDTAVYYCNARKRTKLSYPKFDYWGQGTQVTVSS", "polyreactivity (PSR sort gate)": "high polyreactivity"}
{"Biosequence": "QVQLVESGGGLVQAGGSLRLICAASGRIFDKNAMGWYRQAPGKERELVAAINRSGGRTYYADSVKGRFTISRDNAKNTVYLQMNSLKPEDTAVYYCAADTQGSRYDYWGQGTQVTVSS", "polyreactivity (PSR sort gate)": "high polyreactivity"}
{"Biosequence": "QVQLVESGGGLVQAGGSLRLSCAASASTFILSAMGWYRQAPGNERELVAAISSDGSTYYADSVKGRFTISRDNAKNTVYLQMNSLKPEDTAVYYCAAYGYDADTGYDYWGQGTQVTVSS", "polyreactivity (PSR sort gate)": "low polyreactivity"}
{"Biosequence": "QDQLVESGGGLVQAGGSLRLSCAASGRTFNYNTMGWYIQAPGKERELVAAINKGGTRTYYADSVKGRFTISRDNAKNTVYLEMNSLKPEDTAVYYCAARLYSYDYWGQGTQVTVSS", "polyreactivity (PSR sort gate)": "high polyreactivity"}
{"Biosequence": "QVQLVESAGGLVQAGGSLRLSSAASGIIFSEYAMGWYRPAPGKERELVAAISKSGGRTYYADSVKGRFTISGVNAKNTVDLQMNSLKPEDTAVYYCAARHAPILGDHGMKYWGQGTQVTVSS", "polyreactivity (PSR sort gate)": "high polyreactivity"}
{"Biosequence": "QVQLVESGGGLVQAGGSLRLSCAASGLIFRVNAMGWYRQAPGKERELVASISVSGGSTYYADSVKGRFTISRDNAKNTVYLQMNSLKPEDTAVYYCAASQYHKGYLFSYPYEYDYWGQGTQVTVSS", "polyreactivity (PSR sort gate)": "low polyreactivity"}
{"Biosequence": "QVQLVESGGGLVQAGGSLRLSCAASGSIFLLYAMGGYRQAPGKERELVAAITRGGGSTYYADSVKGRFTISRDNAKNTVYLQMNSLKPEDTAVYYCAKGFQNHNGRLVVAYDYWGQGTQVTVSS", "polyreactivity (PSR sort gate)": "low polyreactivity"}
{"Biosequence": "QVQLVESGGGLVQAGGSLRLSCAASGRIFGYYAMGWYRQAPGKERELVATITFGGGSTYYADSVKGRFTISRDNAKNTVYLQMNSLIPEDSAVYYCAADSGYLGIYGDEYSWGQGTQVTVSS", "polyreactivity (PSR sort gate)": "low polyreactivity"}

Query :: Bench note: what polyreactivity (PSR sort gate) did QVQLVESGGGLVQAGGSLRLSCAPYGLTFYGYTMGWYIQAPGKQRELVASISWSGGNKYYADSVKGRFTISRDKAKNSVYLQMNSLKPEDTAVYYCAAEHWTYDCVDYWGQGTQVTVSW show?
Result :: low polyreactivity

Query :: Given the entry QVQLVESGGGLVQAGGSLRLSCAASGFIFFKYAMGWYRQAPGKERELVAGITSGGSTYYADSVKGRFTISRDNAKNTVYLQMNSLKPEDTAVYYCAAYVKRESAPYGYWGQGTQVTVSS , report its measured polyreactivity (PSR sort gate).
Result :: low polyreactivity

Query :: Record request: polyreactivity (PSR sort gate) value, item QVQLVESGGGLVQAGGSLRLSCAASGRIIDTYAMGWYRQAPGKERELFASISRSDTSTSYADSVKGRFTISRDNAKNTVYLQMNCLKPEDTAVYYCNKDGVTVTNSKRYDYLGQGTQVTVSS
Result :: low polyreactivity

---

Assay: yeast display, Sf9 membrane polyspecificity reagent, FACS + sequencing; frameworks hold sequencing errors

{"Biosequence": "QVQLVESGGGLVQAGGSLRLSCAASGSIFGTNAMGWYRQAPGKERELVAAISTSADITYYADSVKGRFTISRDNAKNTVYLQMNSLKPEDTAVYYCNKRKWPTFTYAMNYWGQGTQVTVSS", "polyreactivity (PSR sort gate)": "low polyreactivity"}
{"Biosequence": "QVQLVESGGGLVQAGGSLRLSCAASGIIFQRNDMGWYRQAPGKERELVANIRDGGITYADSVKGRFTISRDNAKNTVYLQMNRLKPEDTAVYYCARDDTSPGYGDQSSNAAYYYWGQGTQVTVSS", "polyreactivity (PSR sort gate)": "low polyreactivity"}

---

Test: yeast display, Sf9 membrane polyspecificity reagent, FACS + sequencing; frameworks hold sequencing errors
Metric Name: polyreactivity (PSR sort gate)

The examples below pair each entry with its known result.
{"Biosequence": "QVQLVESGGGLVQAGGSLRLSCAASGSIFGANTMGWYRQAPGKERELGAAISKRGGSTYYADSVKGRFTISRDNAKNTVYLQMNSLKPEDTAVYYCNATPRYLRQYVDPNWGYDYWGQGTQVTVSS", "polyreactivity (PSR sort gate)": "low polyreactivity"}
{"Biosequence": "QVQLVDSGGGLVQAGGSLRLSCAASGYIFGDYVMGWYRQAPGKERELVASISSSGDTNYADSVKGRFTISRDNAMNTVYLQMNSLKPEDTAVYYCAAVDWIGRVHGKPWGGDYWGQGTQVTVSS", "polyreactivity (PSR sort gate)": "low polyreactivity"}
{"Biosequence": "QVQLVESGGGLVQAGGSLRLSCAASGRTFQEYAMGWYRQAPGKERELVADISDGGSTNYADSVKGRFTISRDNAKNTVYLQMYSLKPEDTAVYYCAADQYHGVGINFRSDYDYWGQGTQVTVSS", "polyreactivity (PSR sort gate)": "low polyreactivity"}
{"Biosequence": "QVQLVESGGGLVQAGGSFRLSCAASGRIFSPNAMGWYRQAPGKEREFVAAITWRAGTTYYADSVKGRFTISRDNAKNTVYLLMNSLKPEDTAVYYCAAGRRLGYGYWGQGTQVTVSS", "polyreactivity (PSR sort gate)": "high polyreactivity"}

Query :: # lookup: polyreactivity (PSR sort gate) of QVQLEESGGGLVQAGGSLRLSCAASGFIFVANAMGWYIQAPWKERELVAAISRRGGSTYYADSVKGRFTISRDNAKNTVYLQMNSLKPEDTAVYYCNAYRRGLSGYGYWGQGTQVTVSS
Result :: high polyreactivity
